For each record, write down the corresponding kinase still bound, per cent of control.
biological target: NTRK1 (human) (UniProt P04629); test: KINOMEscan competition binding; conditions: compound 10.0 µM
Sequence (P04629 whole entry, looked up): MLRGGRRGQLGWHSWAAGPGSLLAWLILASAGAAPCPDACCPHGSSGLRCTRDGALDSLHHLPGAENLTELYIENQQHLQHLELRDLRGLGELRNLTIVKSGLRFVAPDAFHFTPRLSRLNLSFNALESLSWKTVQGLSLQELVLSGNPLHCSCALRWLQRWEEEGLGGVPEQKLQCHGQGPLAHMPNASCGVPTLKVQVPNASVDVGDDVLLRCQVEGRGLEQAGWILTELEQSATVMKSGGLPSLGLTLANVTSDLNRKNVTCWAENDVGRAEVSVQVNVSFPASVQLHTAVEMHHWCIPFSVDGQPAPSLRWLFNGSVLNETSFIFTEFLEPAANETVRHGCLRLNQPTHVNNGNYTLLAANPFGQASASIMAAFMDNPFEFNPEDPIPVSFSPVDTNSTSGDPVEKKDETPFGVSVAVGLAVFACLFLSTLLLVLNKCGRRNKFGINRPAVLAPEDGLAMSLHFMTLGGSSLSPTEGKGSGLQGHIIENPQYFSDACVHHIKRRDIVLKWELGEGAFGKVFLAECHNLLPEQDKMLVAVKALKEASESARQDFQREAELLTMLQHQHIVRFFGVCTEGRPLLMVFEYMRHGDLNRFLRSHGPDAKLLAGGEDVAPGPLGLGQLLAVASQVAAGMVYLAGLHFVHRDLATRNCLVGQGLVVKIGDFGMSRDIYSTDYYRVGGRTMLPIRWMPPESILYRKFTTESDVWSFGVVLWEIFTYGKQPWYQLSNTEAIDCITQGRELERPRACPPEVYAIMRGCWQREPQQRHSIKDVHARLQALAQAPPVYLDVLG
Your answer is read as %, so omit the unit and give the number.

Inquiry: Return kinase still bound, per cent of control (reported value) for this compound: "C[C@@H](Oc1cc(-c2cnn(C3CCNCC3)c2)cnc1N)c1c(Cl)ccc(F)c1Cl"
Reply text: 0.1

Inquiry: Give reported kinase still bound, per cent of control value for "Cc1n[nH]c2ccc(-c3cncc(OC[C@@H](N)Cc4c[nH]c5ccccc45)c3)cc12"
Reply text: 100

Inquiry: Supply kinase still bound, per cent of control value. Item: "CN(C)C/C=C/C(=O)Nc1ccc(C(=O)Nc2cccc(Nc3nccc(-c4cccnc4)n3)c2)cc1"
Reply text: 60

Inquiry: Return kinase still bound, per cent of control for the following compound: "O=C(Nc1cccc(Nc2ncc(Br)c(NCCc3cnc[nH]3)n2)c1)N1CCCC1"
Reply text: 0.2

Inquiry: Write down kinase still bound, per cent of control measured for item "O=C1NC(=O)/C(=C/c2ccc3nccc(-c4ccncc4)c3c2)S1"
Reply text: 78

Inquiry: Indicate its recorded kinase still bound, per cent of control; the compound in question is "CCN1CCN(C(=O)Cc2ccc(Nc3ncc(F)c(Nc4ccc(C(=O)Nc5ccccc5Cl)cc4)n3)cc2)CC1"
Reply text: 19

Inquiry: Look up and state reported kinase still bound, per cent of control for "NC(=O)Nc1cc(-c2cccc(F)c2)sc1C(=O)N[C@@H]1CCCNC1"
Reply text: 0

Inquiry: Tell us which kinase still bound, per cent of control value is on record for "COc1ccc(N(C(=O)Oc2c(C)cccc2C)c2ccnc(Nc3ccc(N4CCN(C)CC4)cc3)n2)c(OC)c1"
Reply text: 78

Inquiry: Specify reported kinase still bound, per cent of control for the compound shown: "C=CC(=O)Nc1ccc(CN(C(=O)Nc2c(Cl)c(OC)cc(OC)c2Cl)c2cc(Nc3ccc(N4CCN(C)CC4)cc3)ncn2)cc1"
Reply text: 100

Inquiry: Query kinase still bound, per cent of control for "CNC(=O)c1cc(Oc2ccc(NC(=O)Nc3ccc(Cl)c(C(F)(F)F)c3)cc2)ccn1"
Reply text: 16

Inquiry: Give a short answer stating reported kinase still bound, per cent of control for "COCC(=O)NC/C=C/c1ccc2ncnc(Nc3ccc(Oc4ccc(C)nc4)c(C)c3)c2c1" .
Reply text: 89

Inquiry: Give the measured kinase still bound, per cent of control for "COc1cc2ncnc(-n3nc(-c4ccccn4)nc3N)c2cc1OC"
Reply text: 48

Inquiry: Look up kinase still bound, per cent of control of "CNC(=O)c1ccc(Nc2cc(Nc3ccccc3S(=O)(=O)C(C)C)c3cc[nH]c3n2)nc1" and report it.
Reply text: 0.75

Inquiry: Please report kinase still bound, per cent of control for the following compound: "CCN(CC)CCCCNc1ncc2c(n1)N(C)C(=O)N(c1c(Cl)c(OC)cc(OC)c1Cl)C2"
Reply text: 100

Inquiry: Answer with reported kinase still bound, per cent of control of "O=c1cc(N2CCOCC2)oc2c(-c3cccc4c3sc3ccccc34)cccc12"
Reply text: 81

Inquiry: Report kinase still bound, per cent of control for "COc1cc2ncn(-c3cc(OCc4ccccc4C(F)(F)F)c(C(N)=O)s3)c2cc1OC"
Reply text: 78

Inquiry: State its kinase still bound, per cent of control for this compound: "COc1cc(N2CCN(C)CC2)ccc1Nc1ncc2c(n1)N(C)c1ccccc1C(=O)N2C"
Reply text: 100

Inquiry: Specify measured kinase still bound, per cent of control for "C=CC(=O)Nc1cc(-n2c(=O)ccc3cnc4ccc(-c5cn[nH]c5)cc4c32)ccc1C" .
Reply text: 65

Inquiry: In one line, give reported kinase still bound, per cent of control of the entry "CCN(CC)CCCCNc1ncc2cc(-c3cc(OC)cc(OC)c3)c(NC(=O)NC(C)(C)C)nc2n1" .
Reply text: 100

Inquiry: Specify reported kinase still bound, per cent of control for the compound shown: "CS(=O)(=O)N1CCN(Cc2cc3nc(-c4cccc5[nH]ncc45)nc(N4CCOCC4)c3s2)CC1"
Reply text: 100

Inquiry: Consider the compound "COc1cc(C(=O)N2CCC(N3CCN(C)CC3)CC2)ccc1Nc1ncc2c(n1)N(C)c1ccccc1C(=O)N2C" and give its recorded kinase still bound, per cent of control.
Reply text: 69
